Data credit: patent US20110082087A1

Test: Cytotoxicity (LDH release and ATP)
Format: cell-based
Details: human hepatocytes; LDH and ATP determination; read-out: LC50 (the source's name)
parameter_measured: CC50

N=C(N)NCCC[C@H](NC(=O)[C@@H](N)Cc1ccc(O)cc1)C(N)=O    > 125 µM

* * *

Experiment: Metabolic stability in human liver microsomal preparation
Assay type: in vitro ADME
Details: liver microsomes; 1-hour incubation with human liver microsomal preparation; read-out: compound remained
parameter_measured: remaining at 1 h (%)

N=C(N)NCCC[C@H](NC(=O)[C@@H](N)Cc1ccc(O)cc1)C(N)=O [KTP-NH2, L-Tyr-L-Arg-NH2]    93

* * *

Listed here: items and their measured remaining at 1 h, 400 uM.
Test: Plasma serum stability of analogues
Assay type: in vitro ADME
Settings: Human Serum; test concentration 400 uM; 1-hour incubation; read-out: Mean Parent Remaining (%)
parameter_measured: remaining at 1 h, 400 uM (%)

N=C(N)NCCC[C@H](NC(=O)[C@H](N)Cc1ccc(O)cc1)C(N)=O    98
N=C(N)NCCC[C@@H](NC(=O)[C@@H](N)Cc1ccc(O)cc1)C(N)=O    78.8
N=C(N)NCCC[C@H](NC(=O)[C@@H](N)Cc1ccc(O)cc1)C(N)=O    14
N=C(N)NCCC[C@@H](NC(=O)[C@H](N)Cc1ccc(O)cc1)C(N)=O    98.4
CN[C@@H](Cc1ccc(O)cc1)C(=O)N[C@H](CCCNC(=N)N)C(N)=O    98.5
CN[C@@H](Cc1ccc(O)cc1)C(=O)N[C@@H](CCCNC(=N)N)C(N)=O    89
